- Tested on: bovine cardiac myofibrils
- protocolDescription: Myofibril assay: PK/LDH-coupled steady-state ATPase activity of skinned bovine cardiac myofibrils
- Assay type: biochemical
- particulars: Ca2+ activating to 75% of maximal rate
Lab note: compare CDMF75 IC15 against 5 µM. Equal or greater, write Fulfilled. Smaller, write Not fulfilled.

Inquiry: Check this compound for CDMF75 IC15 at or above 5 µM: CNC(=O)N1CC2(C1)C(=O)N(c1ccc(C#N)nc1)CC(=O)N2Cc1ccc(C(F)(F)F)cc1
Reply text: Fulfilled

Inquiry: Could you verify whether the entry Cc1csc(N2CC3(C2)C(=O)N(C(C)C)CC(=O)N3Cc2ccc(Cl)cc2)n1 shows CDMF75 IC15 of no less than 5 µM?
Reply text: Not fulfilled

Inquiry: Has CCN1CC(=O)N(Cc2ccc(Cl)cc2)C2(CCN(c3ccccn3)C2)C1=O (stereo not drawn) a recorded CDMF75 IC15 greater than or equal to 5 µM?
Reply text: Fulfilled

Inquiry: I'd appreciate it if you could say whether N#Cc1ccc(N2CC(=O)N(Cc3ccc(C(F)(F)F)cc3)C3(CCN(C=O)C3)C2=O)c(F)c1 (stereo in doubt) has CDMF75 IC15 at least equal to 5 µM.
Reply text: Not fulfilled

Inquiry: Determine whether this compound has CDMF75 IC15 no lower than 5 µM: CNC(=O)c1cccc(N2CC3(C2)C(=O)N(c2ccc(C#N)cc2F)CC(=O)N3Cc2ccc(C(F)(F)F)cc2)c1
Reply text: Not fulfilled

Inquiry: Can CC(C)N1CC(=O)N(C(C)c2ccc(C(F)(F)F)cc2)C2(CN(c3ccccc3)C2)C1=O (stereo not drawn) be said to have CDMF75 IC15 at or above 5 µM?
Reply text: Not fulfilled

Inquiry: Record CC(C)N1CC(=O)N(Cc2ccc(Cl)cc2)C2(CN(c3nc4c(s3)COCC4)C2)C1=O ; criterion: CDMF75 IC15 no lower than 5 µM. Met?
Reply text: Not fulfilled

Inquiry: hey, is CDMF75 IC15 for this one >= 5 µM? CC(C)N1CC(=O)N(Cc2ccc(C(F)(F)F)cc2)C2(CCN(c3cc[nH]c(=O)c3)C2)C1=O (stereo not drawn)
Reply text: Not fulfilled

Inquiry: Is CDMF75 IC15 for CC(=O)N1CC2(C1)C(=O)N([C@H]1CC[C@H](C#N)CC1)CC(=O)N2Cc1ccc(C(F)(F)F)cc1 at or above 5 µM?
Reply text: Fulfilled

Inquiry: Is it the case that CNC(=O)N1CC2(C1)C(=O)N(C(C)C)CC(=O)N2Cc1ccc(C(F)(F)F)cc1 has CDMF75 IC15 reaching or exceeding 5 µM?
Reply text: Fulfilled

Inquiry: API: above_or_equal(metric=CDMF75 IC15, cutoff=5 µM) for item CC(C)N1CC(=O)N(Cc2ccc(Cl)cc2)C2(CCN(c3ccccn3)C2)C1=O (single isomer, unassigned) [Compound 373A]
Reply text: Not fulfilled

Inquiry: Decide: is the reported value of CDMF75 IC15 for N#Cc1ccc(N2CC(=O)N(Cc3ccc(C(F)(F)F)cc3)[C@]3(CCN(C(=O)C4CC4)C3)C2=O)c(F)c1 equal to or greater than 5 µM?
Reply text: Not fulfilled

Inquiry: Is it the case that CNC(=O)N1CC2(C1)C(=O)N(Cc1ccc(Cl)cc1)CC(=O)N2Cc1ccc(C(F)(F)F)cc1 has CDMF75 IC15 reaching or exceeding 5 µM?
Reply text: Not fulfilled

Inquiry: Given O=C1CN(c2ncc(Cl)cc2F)C(=O)C2(CCC2)N1Cc1ccc(C(F)(F)F)cc1 , state whether its CDMF75 IC15 is at least 5 µM.
Reply text: Not fulfilled

Inquiry: Form field: CDMF75 IC15 at least 5 µM? Entry: CC(=O)N1CC(C2C(=O)N(c3ncc(Cl)cc3F)CC(=O)N2Cc2ccc(Cl)cc2)C1 (stereo not drawn)
Reply text: Fulfilled

Inquiry: Check the entry CC(C)N1CC(=O)N(Cc2ccc(C(F)(F)F)cc2)C2(CCN(C(=O)Nc3cccnc3)C2)C1=O (stereo not drawn) : does CDMF75 IC15 equal or exceed 5 µM?
Reply text: Fulfilled

Inquiry: Is CDMF75 IC15 for CC(=O)N1CC(CC2C(=O)N(c3ncc(Cl)cc3F)CC(=O)N2Cc2ccc(Cl)cc2)C1 (stereo not drawn) at or above 5 µM?
Reply text: Fulfilled

Inquiry: Hi, just wondering whether CNC(=S)N1CC2(C1)C(=O)N(c1ccc(C#N)c(F)c1)CC(=O)N2Cc1ccc(C(F)(F)F)cc1 shows CDMF75 IC15 of 5 µM or higher.
Reply text: Not fulfilled

Inquiry: I'd appreciate it if you could say whether CNC(=O)c1cc(N2CC3(C2)C(=O)N(c2ccc(C#N)cc2F)CC(=O)N3Cc2ccc(C(F)(F)F)cc2)ccc1NC has CDMF75 IC15 at least equal to 5 µM.
Reply text: Not fulfilled

Inquiry: Would you say CNC(=O)N1CC(C2C(=O)N(c3ncc(Cl)cc3F)CC(=O)N2Cc2ccc(Cl)cc2)C1 (stereo not drawn) shows CDMF75 IC15 at minimum 5 µM?
Reply text: Fulfilled

Inquiry: Decide: is the reported value of CDMF75 IC15 for CC1(CO)C(=O)N(c2ccc(Cl)cc2F)CC(=O)N1Cc1ccc(C(F)(F)F)cc1 (stereo not drawn) equal to or greater than 5 µM?
Reply text: Not fulfilled

Inquiry: Is reported CDMF75 IC15 greater than or equal to 5 µM here: CNC(=O)N1CC2(C1)C(=O)N(c1ccc(C#N)cc1)CC(=O)N2Cc1ccc(Cl)cc1
Reply text: Not fulfilled

Inquiry: Does the reported CDMF75 IC15 for Cc1ccc(CN2C(=O)CN(c3ncc(Cl)cc3F)C(=O)C23CC2(CN(C=O)C2)C3)cc1 fall at or above the 5 µM mark?
Reply text: Not fulfilled

Inquiry: Can O=C1CN(c2ccc(Cl)cc2F)C(=O)C2(COC2)N1Cc1ccc(F)cc1 be said to have CDMF75 IC15 at or above 5 µM?
Reply text: Not fulfilled

Inquiry: Hi team, for CC(C)N1C(=O)C2(CN(c3ccccc3)C2)N(Cc2ccc(Cl)cc2)C(=O)C1C (stereo not drawn) , is the recorded CDMF75 IC15 at or above 5 µM?
Reply text: Fulfilled

Inquiry: API: above_or_equal(metric=CDMF75 IC15, cutoff=5 µM) for item CC(=O)N1CCC2(CC1)C(=O)N(c1ncc(Cl)cc1F)CC(=O)N2Cc1ccc(C(F)(F)F)cc1
Reply text: Fulfilled

Inquiry: Assess whether reported CDMF75 IC15 for C[C@@H](c1ccc(Cl)cc1)N1C(=O)CN(c2ncc(Cl)cc2F)C(=O)C12CN(CC(F)F)C2 sits at 5 µM or higher.
Reply text: Not fulfilled

Inquiry: Check the entry N#Cc1ccc(N2CC(=O)N(Cc3ccc(C(F)(F)F)cc3)C3(CC3)C2=O)c(F)c1 : does CDMF75 IC15 equal or exceed 5 µM?
Reply text: Not fulfilled

---

- System: bovine cardiac myofibrils
- protocolDescription: Myofibril assay: PK/LDH-coupled steady-state ATPase activity of skinned bovine cardiac myofibrils
- Assay type: biochemical
- particulars: Ca2+ activating to 75% of maximal rate
measurementType: CDMF75 IC15 (µM)
State the answer as a number, implicitly in µM.

Inquiry: Request the reported CDMF75 IC15 associated with Cc1cc(N2CC3(C2)C(=O)N(C(C)C)CC(=O)N3Cc2ccc(Cl)cc2)cc(C)n1
Reply text: 9.3

Inquiry: Consider the compound shown here: O=C1CN(c2ncc(Cl)cc2F)C(=O)C2(CC3(COC3)C2)N1Cc1ccc(C(F)(F)F)cc1 What is its recorded CDMF75 IC15?
Reply text: 0.4

Inquiry: Look up CDMF75 IC15 for this compound: N#Cc1ccc(N2CC(=O)N(Cc3ccc(C(F)(F)F)cc3)C3(CN(c4ccc(C#N)cn4)C3)C2=O)cc1
Reply text: 0.6

Inquiry: What value of measured CDMF75 IC15 is listed for CNC(=O)N1CC2(C1)C(=O)N(c1ccc(C#N)cc1)CC(=O)N2Cc1ccc(C(F)(F)F)cc1 ?
Reply text: 1.2

Inquiry: May I ask what CDMF75 IC15 has been recorded for NC(=O)C12CC(C3C(=O)N(c4ncc(Cl)cc4F)CC(=O)N3Cc3ccc(C(F)(F)F)cc3)(C1)C2 (stereo not shown) ?
Reply text: 3.08

Inquiry: Could you tell me which CDMF75 IC15 is on file for CNC(=O)N1CC2(C1)C(=O)N(c1cccc(Cl)c1)CC(=O)N2Cc1ccc(C(F)(F)F)cc1 ?
Reply text: 7.3

---

So I've got a bunch of compounds here, and I need their CDMF75 IC15 values.
- System: bovine cardiac myofibrils
- protocolDescription: Myofibril assay: PK/LDH-coupled steady-state ATPase activity of skinned bovine cardiac myofibrils
- Assay type: biochemical
- particulars: Ca2+ activating to 75% of maximal rate
Report the figure in µM without appending any unit label.

Inquiry: Data request, read-out CDMF75 IC15, for CC(C)N1CC(=O)N(Cc2ccccc2)C(c2ccc(Cl)cc2)C1=O (stereo not drawn)
Reply text: 33.3

Inquiry: # input compound: Cc1cc(N2CCC3(C2)C(=O)N(C(C)C)CC(=O)N3Cc2ccc(C(F)(F)F)cc2)cc(C)n1 (stereo not drawn) ; wanted: its CDMF75 IC15
Reply text: 13.0

Inquiry: CDMF75 IC15 lookup needed for O=C1CN(c2ncc(Cl)cc2F)C(=O)C2(COC2)N1Cc1ccc(C(F)F)cc1 , thanks.
Reply text: 4.3

Inquiry: Request the reported CDMF75 IC15 associated with Cc1ccnc(N2CC3(C2)C(=O)N(C(C)C)CC(=O)N3Cc2ccc(Cl)cc2)c1
Reply text: 2.7

Inquiry: Look at this compound and give its reported CDMF75 IC15. COC(=O)c1cc(N2CC3(C2)C(=O)N(C(C)C)CC(=O)N3Cc2ccc(Cl)cc2)ccn1
Reply text: 14.6

Inquiry: Please look up its CDMF75 IC15: CC(C)N1CC(=O)N(Cc2ccc(Cl)cc2)C2(CCN(c3cc(C(N)=O)ccn3)C2)C1=O (stereo not drawn)
Reply text: 3.1

Inquiry: // query CDMF75 IC15 value for entry CC(C)N1CC(=O)N(Cc2ccc(Cl)cc2)C2(CCN(c3cc[nH]c(=O)c3)C2)C1=O (stereo not drawn)
Reply text: 1.4

Inquiry: Which CDMF75 IC15 is listed for N#Cc1ccc(N2CC(=O)N(Cc3ccc(C(F)(F)F)cc3)C3(CN(C=O)C3)C2=O)cc1F ?
Reply text: 0.4

Inquiry: So what does the record say about CDMF75 IC15 for COC(=O)C12CC(C3C(=O)N(c4ncc(Cl)cc4F)CC(=O)N3Cc3ccc(C(F)F)cc3)(C1)C2 (stereo not drawn) ?
Reply text: 2.9

Inquiry: Look up CDMF75 IC15: O=C1C(C2CC(O)C2)N(Cc2ccc(C(F)(F)F)cc2)C(=O)CN1c1ncc(Cl)cc1F (stereo not drawn) [Compound 740]
Reply text: 2.3

Inquiry: Fill in: CDMF75 IC15 of CC(C)N1CC(=O)N(Cc2ccc(C(F)(F)F)cc2)C2(CCN(c3cc(C#N)ccn3)C2)C1=O (stereo not drawn) is ___
Reply text: 4.0

Inquiry: Entry NC(=O)C12CC([C@H]3C(=O)N(c4ncc(Cl)cc4F)CC(=O)N3Cc3ccc(Cl)cc3)(C1)C2 has what CDMF75 IC15?
Reply text: 1.42

Inquiry: I'd like to know its CDMF75 IC15. The compound in question is O=C1C(CC2COC2)N(Cc2ccc(Cl)cc2)C(=O)CN1c1ncc(Cl)cc1F (stereo not drawn)
Reply text: 1.6

Inquiry: Look at this compound and give its reported CDMF75 IC15. CC(C)N1CC(=O)N(Cc2ccc(Cl)cc2)C2(CN(c3ccnnc3)C2)C1=O
Reply text: 5.7

Inquiry: Given the compound N#Cc1ccc(N2CC(=O)N(Cc3ccc(C(F)(F)F)cc3)[C@@H](C3CCC3)C2=O)c(F)c1 , what is its reported CDMF75 IC15?
Reply text: 0.5

Inquiry: What does the record list as CDMF75 IC15 for N#Cc1ccc(N2CC3(C2)C(=O)N(c2ccccc2)CC(=O)N3Cc2ccc(C(F)(F)F)cc2)nc1 ?
Reply text: 5.5

Inquiry: Param item = COC(=O)c1ccc(N2CC3(C2)C(=O)N(c2ccc(C#N)cc2F)CC(=O)N3Cc2ccc(C(F)(F)F)cc2)cc1 ; retrieve measured CDMF75 IC15.
Reply text: 0.2

Inquiry: Item under review: CNC(=O)N1CC2(C1)C(=O)N(C(C)C)CC(=O)N2Cc1ccc(Cl)cc1 . Reported CDMF75 IC15?
Reply text: 9.8

Inquiry: What value of CDMF75 IC15 has been reported for the following compound? CC(C)(C)OC(=O)[C@H]1C[C@]2(C1)C(=O)N(c1ccc(C#N)cc1F)CC(=O)N2Cc1ccc(C(F)(F)F)cc1 [Compound 429B]
Reply text: 0.2

Inquiry: Which CDMF75 IC15 is listed for CC(C)N1CC(=O)N(Cc2ccc(C(F)(F)F)cc2)C2(CN(C=O)C2)C1=O ?
Reply text: 15.4

Inquiry: I have this compound here, CC(=O)N1CC2(C1)C(=O)N(c1ncc(C#N)cc1F)CC(=O)N2Cc1ccc(C(F)(F)F)cc1 , and I need its recorded CDMF75 IC15.
Reply text: 4.7

Inquiry: Request the reported CDMF75 IC15 associated with CNC(=O)N1CC2(C1)C(=O)N(c1ccc(C(=O)c3ccccc3)cc1)CC(=O)N2Cc1ccc(C(F)(F)F)cc1
Reply text: 18.5

Inquiry: Requested read-out: CDMF75 IC15. Entry: CC1(N2CC(=O)N(Cc3ccc(Cl)cc3)C3(CCN(c4ccccn4)C3)C2=O)CC1 (stereo not drawn)
Reply text: 14.3

Inquiry: Reported CDMF75 IC15 for CC(C)N1CC(=O)N(Cc2ccc(C(F)(F)F)cc2)C2(CCN(C(=O)Nc3ccccc3)C2)C1=O (stereo not drawn) : what is it?
Reply text: 8.3

Inquiry: CDMF75 IC15 for COC(=O)C12CC(C3C(=O)N(c4ncc(Cl)cc4F)CC(=O)N3Cc3ccc(C)cc3)(C1)C2 (stereo not drawn) ?
Reply text: 4.0

Inquiry: So what does the record say about CDMF75 IC15 for COc1ccc(C2C(=O)N(C(C)C)CC(=O)N2Cc2ccc(Cl)cc2)cc1 (stereo not drawn) ?
Reply text: 3.9

Inquiry: Name the recorded CDMF75 IC15 for CC(C)N1CC(=O)N(Cc2ccc(C(F)(F)F)cc2)C2(CCc3ccccc32)C1=O (stereo not drawn) .
Reply text: 24.0

Inquiry: Which value of CDMF75 IC15 has been reported for CC(C)C(=O)N1CC[C@]2(C1)C(=O)N(c1ccc(C#N)cc1F)CC(=O)N2Cc1ccc(Cl)cc1 in the records?
Reply text: 4.1

Inquiry: Return reported CDMF75 IC15; argument: CC(C)N1CC(=O)N(Cc2ccc(C(F)(F)F)cc2)C2(CCN(C(N)=O)C2)C1=O (stereo not drawn)
Reply text: 12.7
